These measurements were taken from the supplement of paper PMC7125110.

B1: glmS ribozyme (parent)
chain: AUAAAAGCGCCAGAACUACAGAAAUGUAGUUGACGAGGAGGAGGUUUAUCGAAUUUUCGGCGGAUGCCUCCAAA

Variants of: B1
Experiment: self-cleavage kobs at 2500 uM GlcN6P; higher = faster cleavage; RNA array
Settings: with glucosamine-6-phosphate
Fewer inactive variants are shown than the library holds.
assay metric: self-cleavage kobs at 2500 uM GlcN6P

# get_value(readout='self-cleavage kobs at 2500 uM GlcN6P', item= A15G A48C C50U )
< 1e-05 s⁻¹

# get_value(readout='self-cleavage kobs at 2500 uM GlcN6P', item= C11G A36G G40C )
< 1e-05 s⁻¹

# get_value(readout='self-cleavage kobs at 2500 uM GlcN6P', item= G41C G51U U69C )
< 1e-05 s⁻¹

# get_value(readout='self-cleavage kobs at 2500 uM GlcN6P', item= A6U A12C U45A A52C )
< 1e-05 s⁻¹

# get_value(readout='self-cleavage kobs at 2500 uM GlcN6P', item= U31C G38A U47G G51C )
< 1e-05 s⁻¹

# get_value(readout='self-cleavage kobs at 2500 uM GlcN6P', item= A6C A14G A36G A52C )
< 1e-05 s⁻¹

# get_value(readout='self-cleavage kobs at 2500 uM GlcN6P', item= A15C C71G )
0.000299 s⁻¹

# get_value(readout='self-cleavage kobs at 2500 uM GlcN6P', item= G37U G38U U49C G59A )
< 1e-05 s⁻¹

# get_value(readout='self-cleavage kobs at 2500 uM GlcN6P', item= G38A C50A A64C )
< 1e-05 s⁻¹

# get_value(readout='self-cleavage kobs at 2500 uM GlcN6P', item= G7C A15U U31C )
< 1e-05 s⁻¹

# get_value(readout='self-cleavage kobs at 2500 uM GlcN6P', item= G44C A52G U54G )
< 1e-05 s⁻¹

# get_value(readout='self-cleavage kobs at 2500 uM GlcN6P', item= A6G U31G )
0.000183 s⁻¹

# get_value(readout='self-cleavage kobs at 2500 uM GlcN6P', item= U31C G37A A53G )
0.000126 s⁻¹

# get_value(readout='self-cleavage kobs at 2500 uM GlcN6P', item= U49A G51A G62U )
< 1e-05 s⁻¹

# get_value(readout='self-cleavage kobs at 2500 uM GlcN6P', item= A33C A39C )
3.92e-05 s⁻¹

# get_value(readout='self-cleavage kobs at 2500 uM GlcN6P', item= C16G U30C C34G U55C C61U C67U )
< 1e-05 s⁻¹

# get_value(readout='self-cleavage kobs at 2500 uM GlcN6P', item= G9A C16U G41A A48U )
< 1e-05 s⁻¹

# get_value(readout='self-cleavage kobs at 2500 uM GlcN6P', item= A33U C68A C70G )
< 1e-05 s⁻¹

# get_value(readout='self-cleavage kobs at 2500 uM GlcN6P', item= G37A U49G C70U )
7.97e-05 s⁻¹

# get_value(readout='self-cleavage kobs at 2500 uM GlcN6P', item= C58U C61A )
7.93e-05 s⁻¹

# get_value(readout='self-cleavage kobs at 2500 uM GlcN6P', item= A39G A42U )
0.00045 s⁻¹

# get_value(readout='self-cleavage kobs at 2500 uM GlcN6P', item= G7U G62A C67A )
< 1e-05 s⁻¹

# get_value(readout='self-cleavage kobs at 2500 uM GlcN6P', item= C11G A36G )
< 1e-05 s⁻¹

# get_value(readout='self-cleavage kobs at 2500 uM GlcN6P', item= C16U G41A C67U )
< 1e-05 s⁻¹

# get_value(readout='self-cleavage kobs at 2500 uM GlcN6P', item= A15G G43A )
4.89e-05 s⁻¹

# get_value(readout='self-cleavage kobs at 2500 uM GlcN6P', item= A36U A42U G59U )
< 1e-05 s⁻¹

# get_value(readout='self-cleavage kobs at 2500 uM GlcN6P', item= A33G A39U A64U C70G )
< 1e-05 s⁻¹

# get_value(readout='self-cleavage kobs at 2500 uM GlcN6P', item= C11A U55C )
0.000125 s⁻¹

# get_value(readout='self-cleavage kobs at 2500 uM GlcN6P', item= A15G U49G C50A G60C )
< 1e-05 s⁻¹
